Tested on: Human immunodeficiency virus
Experiment: Resistance of constructed mutant 84V virus was calculated as (IC90 for a mutant virus / IC90 of wt HXB2 virus).
Type: functional
Assignment: determine reported Resistance for the given molecules.
Answers are plain numbers.

CC(C)c1nc(CN(C)C(=O)N[C@H](C(=O)N[C@@H](Cc2ccccc2)C[C@H](O)[C@H](Cc2ccccc2)NC(=O)OCc2cncs2)C(C)C)cs1 : 2.4

For every record below, what is its Resistance?
1. CC(C)(C)NC(=O)[C@@H]1C[C@@H]2CCCC[C@@H]2CN1C[C@@H](O)[C@H](Cc1ccccc1)NC(=O)[C@H](CC(N)=O)NC(=O)c1ccc2ccccc2n1
2. Nc1cccc(CN2C(=O)N(Cc3cccc(N)c3)[C@H](Cc3ccccc3)[C@H](O)[C@@H](O)[C@H]2Cc2ccccc2)c1

1. 0.7
2. 9.9

* * *

Tested on: Human immunodeficiency virus
Experiment: Resistance of constructed mutant […]/47V/50V virus was calculated as (IC90 for a mutant virus / IC90 of wt HXB2 virus).
Type: functional
We label by threshold. Values of Resistance strictly beneath 6 are 1.0. Values of 6 and up are 0.0.

Example entries and their recorded answers appear below.
CC(C)CN(C[C@@H](O)[C@H](Cc1ccccc1)NC(=O)O[C@H]1CCOC1)S(=O)(=O)c1ccc(N)cc1 : 0.0
O=C(Nc1nc2ccccc2[nH]1)c1cccc(CN2C(=O)N(Cc3cccc(C(=O)Nc4nc5ccccc5[nH]4)c3)[C@H](Cc3ccccc3)[C@H](O)[C@@H](O)[C@H]2Cc2ccccc2)c1 : 1.0
CC(C)[C@H](NC(=O)OCc1ccccc1)C(=O)N[C@@H](Cc1ccccc1)[C@H](O)[C@@H](O)[C@@H](Cc1ccccc1)NC(=O)[C@H](NC(=O)OCc1ccccc1)C(C)C : 0.0

In the record for O=C(Nc1nccs1)c1cccc(CN2C(=O)N(Cc3ccccc3)[C@H](Cc3ccccc3)[C@H](O)[C@@H](O)[C@H]2Cc2ccccc2)c1 , is Resistance less than 6?
0.0

In the record for O=C(Nc1nccs1)c1cccc(CN2C(=O)N(Cc3cccc(C(=O)Nc4nccs4)c3)[C@H](Cc3ccccc3)[C@H](O)[C@@H](O)[C@H]2Cc2ccccc2)c1 , is Resistance less than 6?
0.0

* * *

System: Human immunodeficiency virus
Assay: Resistance of constructed mutant 84V virus was calculated as (IC90 for a mutant virus / IC90 of wt HXB2 virus).
Format: functional
We label by threshold. Values of Resistance strictly beneath 4 are Yes. Values of 4 and up are No.

In the record for O=C(Nc1nc2ccccc2[nH]1)c1cccc(CN2C(=O)N(Cc3cccc(C(=O)Nc4nc5ccccc5[nH]4)c3)[C@H](Cc3ccccc3)[C@H](O)[C@@H](O)[C@H]2Cc2ccccc2)c1 , is Resistance less than 4?
Yes

In the record for O=C(Nc1ncc[nH]1)c1cccc(CN2C(=O)N(Cc3cccc(C(=O)Nc4ncc[nH]4)c3)[C@H](Cc3ccccc3)[C@H](O)[C@@H](O)[C@H]2Cc2ccccc2)c1 , is Resistance less than 4?
Yes

In the record for O=C(Nc1nccs1)c1cccc(CN2C(=O)N(Cc3cccc(C(=O)Nc4nccs4)c3)[C@H](Cc3ccccc3)[C@H](O)[C@@H](O)[C@H]2Cc2ccccc2)c1 , is Resistance less than 4?
Yes

In the record for CCCCN1C(=O)N(Cc2cccc(C(=O)Nc3ncc[nH]3)c2)[C@H](Cc2ccccc2)[C@H](O)[C@@H](O)[C@H]1Cc1ccccc1 , is Resistance less than 4?
No

In the record for O=C(Nc1nccs1)c1cccc(CN2C(=O)N(Cc3ccccc3)[C@H](Cc3ccccc3)[C@H](O)[C@@H](O)[C@H]2Cc2ccccc2)c1 , is Resistance less than 4?
No

In the record for O=C1N(CC2CC2)[C@H](Cc2ccccc2)[C@H](O)[C@@H](O)[C@@H](Cc2ccccc2)N1CC1CC1 , is Resistance less than 4?
No

In the record for CC(C)(C)NC(=O)[C@@H]1CN(Cc2cccnc2)CCN1C[C@@H](O)C[C@@H](Cc1ccccc1)C(=O)N[C@H]1c2ccccc2C[C@H]1O.O , is Resistance less than 4?
Yes

In the record for CC(C)CN(C[C@@H](O)[C@H](Cc1ccccc1)NC(=O)O[C@H]1CCOC1)S(=O)(=O)c1ccc(N)cc1 , is Resistance less than 4?
Yes
